Biological target: T1, MBP-AtTZF1 RR-TZF C101R/C136R/C171R (Arabidopsis thaliana, UniProt O82307 86-195, C101R;C136R;C171R)
T1 sequence: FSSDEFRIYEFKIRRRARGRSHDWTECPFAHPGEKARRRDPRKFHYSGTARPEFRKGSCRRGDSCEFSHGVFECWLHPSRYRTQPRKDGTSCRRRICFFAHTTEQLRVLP
Assay: fluorescence anisotropy
measured property: Kd (µM)
Numeric only. Scale: µM

Give reported Kd value for UUUUUUUUUUUUUUUUUUU (ssRNA) [Fl-polyU] 3.11
